Test system: Yersinia pseudotuberculosis
assayInfo: Antimicrobial activity against Yersinia pseudotuberculosis ATCC 911
Format: functional
quantityName: inhibition zone (IZ)

smilesStructure | quantityName | result
O=C(NCc1ccccc1)Nc1ccc(S(=O)(=O)Cl)cc1 | inhibition zone (IZ) | 25 mm
CC(=O)OCC1=C(C(=O)O)N2C(=O)[C@@H](NS(=O)(=O)c3ccc(NC(=S)Nc4ccccc4)cc3)[C@H]2SC1 | inhibition zone (IZ) | 10 mm

---

Test system: Enterococcus faecalis
assayInfo: Antimicrobial activity against Enterococcus faecalis ATCC 29212
Type: functional
Activity calls are given as the source filed them. The calls are words filed in the database; no cut-off is given here.

smilesStructure | inhibition zone (IZ)
O=S(=O)(Cl)c1ccc(/N=c2/sc(-c3ccc(Cl)cc3)cn2Cc2ccccc2)cc1 | 18 mm
CC(=O)OCC1=C(C(=O)O)N2C(=O)[C@@H](NC(=O)CN3CCN(c4ccc([N+](=O)[O-])cc4F)CC3)[C@H]2SC1 | 8 mm
O=S(=O)(Cl)c1ccc(/N=c2/sc(-c3ccc(Cl)cc3)cn2-c2ccccc2)cc1 | 8 mm
O=C(Nc1ccccc1)Nc1ccc(S(=O)(=O)Cl)cc1 | inactive
CC(=O)OCC1=C(C(=O)O)N2C(=O)[C@@H](NS(=O)(=O)c3ccc(/N=c4/sc(-c5ccc(Cl)cc5)cn4-c4ccccc4)cc3)[C@H]2SC1 | inactive

Values from ChEMBL document CHEMBL2434823
